The measured values listed here are drawn from patent US20240368104A1.

Give SI (Selectivity Index, CC50/IC50) for every item shown.
- System: SARS-COV-2
- Experiment: microbe, parasite or virus in culture
- Assay type: cell-based
- Parameters: unit not given here
- Assay Conditions: SARS-COV-2; values >50 assumed to be 50
Answers are plain numbers.

# example entries with known answers
# Molecule, SI (Selectivity Index, CC50/IC50)
rows = [
    ("CCN(c1ccc(-c2c3c(cc4cc(OC)c(OC)cc24)COC3=O)cn1)C1Cc2ccccc2C1", 9.50),
    ("COc1cc2cc3c(c(-c4cc5c(cc4OC(=O)c4cccnc4)OCO5)c2cc1OC)C(=O)OC3", 27.23),
    ("COc1cc2cc3c(c(-c4cc(C)nc5c(F)cccc45)c2cc1OC)C(=O)OC3", 1.0),
]

Give one value of SI (Selectivity Index, CC50/IC50) per listed molecule.
1. CCN(CC)c1ccc(-c2c3c(cc4cc(OC)c(OC)cc24)COC3=O)cc1
2. CCN(CC1CCCO1)c1ccc(-c2c3c(cc4cc(OC)c(OC)cc24)COC3=O)cn1 (centres unmarked)
3. COc1cc2cc(CO)c(C(=O)Cl)c(-c3cc4c(cc3O)OCO4)c2cc1OC
4. COc1cc2cc3c(c(-c4cnc(N5CCC[C@H]5CO)nc4)c2cc1OC)C(=O)OC3.Cl
5. COc1cc2cc3c(c(N[C@H]4CCc5c(cccc5OC)C4)c2cc1OC)C(=O)OC3

Outgoing:
1: 100.23; 2: 6.46; 3: 2.63; 4: 1.65; 5: 1.00

---

- Tested on: SARS-COV-2
- Experiment: microbe, parasite or virus in culture
- Assay type: cell-based
- Set-up: unit not given here
- Assay Conditions: SARS-COV-2; values >50 assumed to be 50
Please mark Met if the recorded SI (Selectivity Index, CC50/IC50) is equal to or greater than 2, and Not met if it falls below.

Check out these entries, answers already filled in.
# Compound, Label Class
records = [
    ("COc1cc2cc3c(c(-c4ccc(N(C)C)nc4)c2cc1OC)C(=O)OC3", "Met"),
    ("COc1cc2cc3c(c(-c4cncc(OC(C)C)c4)c2cc1OC)C(=O)OC3", "Not met"),
    ("COc1cc2cc3c(c(-c4cnc(N5CCC(N(C)C)CC5)nc4)c2cc1OC)C(=O)OC3", "Met"),
    ("COc1cc2cc3c(c(-c4ccc(N(C)c5nc(SC)n(C)n5)nc4)c2cc1OC)C(=O)OC3.Cl", "Met"),
    ("CNc1cccc(-c2c3c(cc4cc(OC)c(OC)cc24)COC3=O)c1", "Met"),
]

Incoming: For this compound, is measured SI (Selectivity Index, CC50/IC50) 2 or higher? `CCCOCCNc1ncc(-c2c3c(cc4cc(OC)c(OC)cc24)COC3=O)cn1`
Outgoing: Not met

Incoming: Also `COc1cc2cc3c(c(-c4cnc(N5CCc6sccc6C5)nc4)c2cc1OC)C(=O)OC3` ?
Outgoing: Met

Incoming: Also `COc1cc2cc3c(c(-c4ccc(N5CCc6sccc6C5)nc4)c2cc1OC)C(=O)OC3` ?
Outgoing: Met

Incoming: Also `COc1cc2cc3c(c(-c4cnc(N5CCC[C@H]5C(N)=O)nc4)c2cc1OC)C(=O)OC3` ?
Outgoing: Not met

---

Give log10(IC50) for every item shown.
- System: SARS-COV-2
- Experiment: microbe, parasite or virus in culture
- Format: cell-based
- Assay Conditions: Severe acute respiratory syndrome coronavirus 2; Vero cells, 24 hours infection; read-out: SARS-COV-2 inhibition (IC50)
On a log10 scale: recorded IC50, unit nM.

# Structure Smiles, Reported
rows = [
    ("COc1cc2cc3c(c(-c4ccc5nccc(N6CCNCC6)c5c4)c2cc1OC)C(=O)OC3", 4.24),
]

Give one value of log10(IC50) per listed molecule.
1. COc1cc2cc3c(c(-c4ccc(N5CCC(Cl)CC5)nc4)c2cc1OC)C(=O)OC3
2. COc1cc2cc3c(c(-c4cc5c(cc4OC(=O)c4ccncc4)OCO5)c2cc1OC)C(=O)OC3
3. COc1cc2cc3c(c(-c4cnc(N(C)C(C)C)nc4)c2cc1OC)C(=O)OC3
4. COc1cc2cc3c(c(-c4ccc(N5CCSCC5)nc4)c2cc1OC)C(=O)OC3

Outgoing:
[3.30, 3.16, 1.90, 2.74]

---

Give SI (Selectivity Index, CC50/IC50) for every item shown.
- System: SARS-COV-2
- Experiment: microbe, parasite or virus in culture
- Format: cell-based
- Set-up: unit not given here
- Assay Conditions: SARS-COV-2; values >50 assumed to be 50

# example entries with known answers
# Molecule, Reported
records = [
    ("COc1cc2cc3c(c(-c4cc5c(cc4OC(=O)c4ccncc4)OCO5)c2cc1OC)C(=O)OC3 [Example 271]", 34.41),
    ("COc1cc2cc3c(c(-c4ccc5ncc(C)cc5c4)c2cc1OC)C(=O)OC3 [Example 120]", 12.07),
    ("COc1cc2cc3c(c(-c4ccc(N5CCOCC5)cc4)c2cc1OC)C(=O)OC3.Cl [Example 245]", 1.00),
    ("CCN(C)c1ccc(-c2c3c(cc4cc(OC)c(OC)cc24)COC3=O)cn1 [Example 178]", 1323.43),
    ("COc1cc2cc3c(c(-c4ccc5c(N6CCNCC6)ccnc5c4)c2cc1OC)C(=O)OC3 [Example 152]", 2.10),
    ("COc1cc2cc3c(c(-c4cc5c(cc4OC(=O)C(C)(C)C)OCO5)c2cc1OC)C(=O)OC3 [Example 276]", 1.00),
    ("COc1cc2cc3c(c(-c4ccc(N5C[C@@H](C)O[C@@H](C)C5)nc4)c2cc1OC)C(=O)OC3 [Example 121]", 21.51),
    ("COc1cc2cc3c(c(-c4cnc(N(C)c5ccc(C)c(C)c5)nc4)c2cc1OC)C(=O)OC3 [Example 109]", 18.73),
    ("COc1cc2cc3c(c(-c4ccc(N(C)[C@H]5CCc6c(cccc6OC)C5)nc4)c2cc1OC)C(=O)OC3 [Example 164]", 39.02),
    ("COc1cc2cc(CO)c(C(=O)[O-])c(-c3cc4c(cc3O)OCO4)c2cc1OC.[Na+] [Example 212]", 2.81),
]

Give one value of SI (Selectivity Index, CC50/IC50) per listed molecule.
1. COc1cc2cc3c(c(-c4cnc(N(C)C5CC5)nc4)c2cc1OC)C(=O)OC3 [Example 70]
2. CCN(c1ncc(-c2c3c(cc4cc(OC)c(OC)cc24)COC3=O)cn1)C1CCCC1.Cl [Example 92]
3. COc1cc2cc3c(c(-c4ccc(C(=O)C(F)(F)F)cc4)c2cc1OC)C(=O)OC3 [Example 210]
4. COc1cc2cc3c(c(-c4cc5c(cc4OC(=O)OC(C)C)OCO5)c2cc1OC)C(=O)OC3 [Example 98]
5. CNc1ccc(-c2c3c(cc4cc(OC)c(OC)cc24)COC3=O)cn1 [Example 229]
6. CCC(C)CNc1ncc(-c2c3c(cc4cc(OC)c(OC)cc24)COC3=O)cn1 (stereo not shown) [Example 64]

Outgoing:
[92.84, 42.34, 4.91, 3.18, 17.63, 1.00]

---

- System: SARS-COV-2
- Experiment: microbe, parasite or virus in culture
- Assay type: cell-based
- Set-up: unit not given here
- Assay Conditions: SARS-COV-2; values >50 assumed to be 50
Give SI (Selectivity Index, CC50/IC50) for every item shown.
Answers are plain numbers.

# example entries with known answers
# Structure Smiles, Reported
data = [
    ("COc1cc2cc3c(c(-c4cnc(Oc5ccc6c(c5)OCO6)nc4)c2cc1OC)C(=O)OC3", 1.00),
    ("COc1cc2cc3c(c(-c4cnc(OCCN5C[C@@H](C)O[C@@H](C)C5)nc4)c2cc1OC)C(=O)OC3", 1.00),
]

Give one value of SI (Selectivity Index, CC50/IC50) per listed molecule.
1. COc1cc2cc3c(c(-c4cnc(N(C)CC5CC5)nc4)c2cc1OC)C(=O)OC3
2. COc1cc2cc3c(c(-c4ccc(-c5c(OC)ncnc5OC)cc4)c2cc1OC)C(=O)OC3
3. COc1cc2cc3c(c(-c4cnc(N5CCSCC5)nc4)c2cc1OC)C(=O)OC3
4. COc1cc2cc3c(c(-c4cnc(NCc5ccc(C)o5)nc4)c2cc1OC)C(=O)OC3
5. COc1cc2cc3c(c(N4CCNCC4)c2cc1OC)C(=O)OC3
6. COc1cc2cc3c(c(-c4ccc(N5CCC(F)(F)CC5)nc4)c2cc1OC)C(=O)OC3

Outgoing:
1. 270.89
2. 1.0
3. 23.56
4. 5.27
5. 1.78
6. 512.00
